- Test system: thymus weight in rats
- procedure summary: Thymus inhibition testing (subcutaneous administration)
- Format: in vivo, rat
- test conditions: Table X, dose required to achieve 50% inhibition of thymi weight, subcutaneous
metric name: TED50 (mg)
Give bare numbers, in mg.

Look over these answered cases.
compound | TED50 / mg
CC(C)OC(=O)O[C@]1(C(=O)OCCl)CC[C@H]2[C@@H]3CCC4=CC(=O)CC[C@]4(C)[C@H]3[C@@H](O)C[C@@]21C | 58.5
CC(C)OC(=O)O[C@]1(C(=O)OCCl)CC[C@H]2[C@@H]3CCC4=CC(=O)C=C[C@]4(C)[C@H]3[C@@H](O)C[C@@]21C | 35.3
CCCC(=O)O[C@]1(C(=O)CO)CC[C@H]2[C@@H]3CCC4=CC(=O)CC[C@]4(C)[C@H]3[C@@H](O)C[C@@]21C [Hydrocortisone 17-butyrate, reference compound] | 2.0

Let's switch to this compound now.
API: value(readout=TED50, system=thymus weight in rats) for record CCCCC(=O)O[C@]1(C(=O)CO)[C@@H](C)C[C@H]2[C@@H]3CCC4=CC(=O)C=C[C@]4(C)[C@@]3(F)[C@@H](O)C[C@@]21C [Betamethasone 17-valerate, reference compound]
0.58

* * *

Exercise: state measured Granulation tissue Wet wt. for each of the molecules provided.
- System: granulation tissue formation caused by implantation of cotton pellets
- procedure summary: Granuloma formation test (local cotton pellet granuloma assay)
- Type: in vivo, rat
- test conditions: Table IV, 1000 μg/pellet
Numbers only, in mg.

Look over these answered cases.
molecule | Granulation tissue Wet wt., mg
CCCC(=O)O[C@]1(C(=O)CO)CC[C@H]2[C@@H]3CCC4=CC(=O)CC[C@]4(C)[C@H]3[C@@H](O)C[C@@]21C [Hydrocortisone 17-butyrate, reference compound] | 366
CC(C)OC(=O)O[C@]1(C(=O)OCCl)CC[C@H]2[C@@H]3CCC4=CC(=O)CC[C@]4(C)[C@H]3[C@@H](O)C[C@@]21C | 305
CCCCC(=O)O[C@]1(C(=O)CO)[C@@H](C)C[C@H]2[C@@H]3CCC4=CC(=O)C=C[C@]4(C)[C@@]3(F)[C@@H](O)C[C@@]21C [Betamethasone 17-valerate, reference compound] | 363

Looking for the measured Granulation tissue Wet wt. of CC(C)OC(=O)O[C@]1(C(=O)OCCl)CC[C@H]2[C@@H]3CCC4=CC(=O)C=C[C@]4(C)[C@H]3[C@@H](O)C[C@@]21C , can you help?
289

* * *

- Tested on: thymus weight in rats
- procedure summary: Thymus inhibition testing (subcutaneous administration)
- Type: in vivo, rat
- test conditions: Table VIII, 10 mg/kg/day s.c., three days
metric name: Thymus wt. Inhibition (%)
Give bare numbers, in %.

Look over these answered cases.
smiles | unit spec | numeric value
CC(C)OC(=O)O[C@]1(C(=O)OCCl)[C@@H](C)C[C@H]2[C@@H]3CCC4=CC(=O)C=C[C@]4(C)[C@@]3(F)[C@@H](O)C[C@@]21C | % | 52.7
CCCOC(=O)O[C@]1(C(=O)OCCl)[C@H](C)C[C@H]2[C@@H]3CCC4=CC(=O)C=C[C@]4(C)[C@@]3(F)[C@@H](O)C[C@@]21C | % | 49.6
CC(C)OC(=O)O[C@]1(C(=O)OCCl)[C@H](C)C[C@H]2[C@@H]3CCC4=CC(=O)C=C[C@]4(C)[C@@]3(F)[C@@H](O)C[C@@]21C | % | 57.5
CCOC(=O)O[C@]1(C(=O)OCCl)[C@@H](C)C[C@H]2[C@@H]3CCC4=CC(=O)C=C[C@]4(C)[C@@]3(F)[C@@H](O)C[C@@]21C | % | 51.6

Let's switch to this molecule now.
Looking for the measured Thymus wt. Inhibition of CCOC(=O)O[C@]1(C(=O)OCCl)[C@H](C)C[C@H]2[C@@H]3CCC4=CC(=O)C=C[C@]4(C)[C@@]3(F)[C@@H](O)C[C@@]21C , can you help?
3.1
